Every entry's value here was drawn from patent US20250263490A1.

Target: T1, recombinant human domain 1-3His6 of the cation-independent mannose-6-phosphate receptor (human, UniProt P11717 41-467)
T1 construct: Biotinylated (NHS-PEG4-biotin) for BLI; Glycosylated; also called hDom1-3His6; hCI-M6PRD1-D3
Experiment: BLI exp 1, dissoc pH 6
Description: For each of the 11 anti-CI-M6PR VHHs, a biolayer interferometry (BLI) experiment was performed in which the hDom₁₋₃His₆ was biotinylated and coupled to streptavidin biosensor tips. Afterwards, the tips were incubated with serially diluted VHHs during the association phase and dissociation was performed at pH 7.4. Similarly, dissociation was performed at pH 7.0, pH 6.0 and pH 5.0 as well after regeneration of the biosensor tips. […]
assayMetric: kon (M⁻¹ s⁻¹)

1. anti-CI-M6PR VHH7 (VHH, His6-tagged (Pichia pastoris)) VHH: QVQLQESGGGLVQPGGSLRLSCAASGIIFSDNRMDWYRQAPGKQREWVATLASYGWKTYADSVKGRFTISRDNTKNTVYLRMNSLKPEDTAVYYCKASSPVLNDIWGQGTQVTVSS
2. anti-CI-M6PR VHH11 (VHH, His6-tagged; made in Pichia pastoris) VHH: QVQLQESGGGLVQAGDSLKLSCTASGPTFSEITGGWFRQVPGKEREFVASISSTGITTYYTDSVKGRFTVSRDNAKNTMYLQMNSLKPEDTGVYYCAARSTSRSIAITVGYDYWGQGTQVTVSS
Which value of kon is numerically greater: that of 1 or that of 2 ? Indicate which entry you chose by stating its label.
1
